The measured values listed here are drawn from patent US20240132624A1.

// reported koff per item
biological target: T1, human FcRn/b2M (human, UniProt P61769 21-119, biotinylated); experiment: SPR pH 6.0
T1 construct: bought recombinant biotinylated protein (ACRO FCM-H82W4 or Immunitrack ITF01); also called hFcRn; hFcRn/hb2M
T1 sequence (chain, as listed by the source limits assumed, chain 1 of 2): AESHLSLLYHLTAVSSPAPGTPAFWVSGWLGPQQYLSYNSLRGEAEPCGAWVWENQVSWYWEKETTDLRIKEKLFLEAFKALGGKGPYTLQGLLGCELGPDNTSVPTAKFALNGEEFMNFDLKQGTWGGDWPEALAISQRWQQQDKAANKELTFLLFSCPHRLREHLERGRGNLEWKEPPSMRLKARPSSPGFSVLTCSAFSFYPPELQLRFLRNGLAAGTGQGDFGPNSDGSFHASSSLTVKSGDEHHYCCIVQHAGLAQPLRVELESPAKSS
T1 sequence (P61769 21-119 limits assumed, chain 2 of 2): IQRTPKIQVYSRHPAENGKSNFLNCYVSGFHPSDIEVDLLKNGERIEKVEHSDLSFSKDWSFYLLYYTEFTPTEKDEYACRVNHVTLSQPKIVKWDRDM
Please respond with the number in s⁻¹ and leave the unit unwritten.

>  <binder>
T026301127 (VHH, name in Kabat numbering, tagless) VHH: EVQLVESGGGVVQPGGSLRLSCAASTFTFSEYDMYWVRQAPGKGLEWVSAISSGGGSTDYADSVKGRFTISRDNSKNTLYLQMNSLRPEDTALYYCAADTLYTSLTSYSYWGQGTLVTVSS

>  <readout.type>
koff

>  <endpoint.result>
0.0095

$$$$
>  <binder>
T026301054 (VHH, name in Kabat numbering, tagless) VHH: EVQLVESGGGVVQPGGSLRLSCAASTFTFSEYAMYWVRQAPGKGLEWVSAISQGGGSTDYADSVKGRFTISRDNSKNTLYLQMNSLRPEDTALYYCAADTLYTDLTWYSYWGQGTLVTVSS

>  <readout.type>
koff

>  <endpoint.result>
0.041

$$$$
>  <binder>
T026301064 (VHH, name in Kabat numbering, tagless) VHH: EVQLVESGGGVVQPGGSLRLSCAASGFTFSSYDMYWVRQAPGKGLEWVSAISQGGGSTDYADSVKGRFTISRDNSKNTLYLQMNSLRPEDTALYYCAADTLYTSLTWYSYWGQGTLVTVSS

>  <readout.type>
koff

>  <endpoint.result>
0.00046

$$$$
>  <binder>
T026301096 (VHH, name in Kabat numbering, tagless) VHH: EVQLVESGGGVVQPGGSLRLSCAASGFTFSSYAMYWVRQAPGKGLEWVSAISQGGGSTDYADSVKGRFTISRDNSKNTLYLQMNSLRPEDTALYYCAADTLYTDLTSYSYWGQGTLVTVSS

>  <readout.type>
koff

>  <endpoint.result>
0.034

$$$$
>  <binder>
T026301059 (VHH, name in Kabat numbering, tagless) VHH: EVQLVESGGGVVQPGGSLRLSCAASGFTFSEYDMYWVRQAPGKGLEWVSAISQGGGSTDYADSVKGRFTISRDNSKNTLYLQMNSLRPEDTALYYCAADTLYTDLTSYSYWGQGTLVTVSS

>  <readout.type>
koff

>  <endpoint.result>
0.039

$$$$
>  <binder>
T026301126 (VHH, name in Kabat numbering, tagless) VHH: EVQLVESGGGVVQPGGSLRLSCAASTFTFSSYAMYWVRQAPGKGLEWVSAISSGGGSTDYADSVKGRFTISRDNSKNTLYLQMNSLRPEDTALYYCAADTLYTSLTKYSYWGQGTLVTVSS

>  <readout.type>
koff

>  <endpoint.result>
0.01

$$$$

Let us examine a further case.
Recorded result, T026301086 (VHH, name in Kabat numbering, tagless) VHH: EVQLVESGGGVVQPGGSLRLSCAASGFTFSEYDMYWVRQAPGKGLEWVSAISSGGGSTDYADSVKGRFTISRDNSKNTLYLQMNSLRPEDTALYYCAADTLYTDLTWYSYWGQGTLVTVSS , koff: 0.013
